test: physchem
assay context: aqueous with cosolvent or surfactant or cyclodextrin, Solubility (MW) with Eumulgin ES
assay metric: solubility (µg/mL)
Numbers only, in µg/mL.

-- ask Supply measured solubility of O=C(C=Cc1ccccc1)OCCc1ccccc1 [Phenethyl cinnamate, phenethyl cinnamate] in your reply.
-- reply 3200

---

test: Solubilization of a homologous series of cinnamic acid derivatives in water by solubilizers
assay context: Tego SMO 80V solution in water, aqueous with cosolvent or surfactant or cyclodextrin, Solubility (MW) with Tego SMO 80V, water, solubilizer Tego SMO 80V
Task for the reader: assign each of the following compounds its reported solubility.
Give bare numbers, in mg/mL.

For orientation, consider the following solved cases.
INSERT INTO assay_data (compound, assay_metric, assay_result) VALUES
  ('COC(=O)C=Cc1ccccc1 [Methyl cinnamate, methyl cinnamate]', 'solubility', 9.6),
  ('CC(C)COC(=O)C=Cc1ccccc1 [Isobutyl cinnamate, isobutyl cinnamate]', 'solubility', 110);

// next item, solubility requested
-- ask Look up solubility of CC(C)OC(=O)C=Cc1ccccc1 [Isopropyl cinnamate, isopropyl cinnamate] and report it.
-- reply 52.5
